Data credit: PubChem BioAssay

Experiment summary: small-molecule binders of probe aLefty1, primary screen, biochemical, small-molecule microarray, 635/667 nm fluorescence (AID 1153);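 further: score merges spot fluorescence with signal-to-noise ratio from the scanned slide images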
Condition parameters: higher = more signal
Consider the following molecules; for each one, report its composite z-score.

GET /value?item= C#C[C@@H]1Oc2ccccc2S(=O)(=O)N2CCC[C@H]12 &field=composite z-score returns 0.149

composite z-score measured on CC(=O)OC[C@H]1O[C@H](CCON=C[C@@H](C)[C@H](OCc2ccccc2)C(C)C)C=C[C@@H]1OC(C)=O = -0.313

The molecule identified as COC(=O)CC=C[C@H](C)[C@H](CO)NS(=O)(=O)c1ccc(C)cc1 registered its composite z-score at -0.221

// CCOC(=O)[C@H](Cc1ccccc1)NC(=O)CCC1CC(OC(=O)NCc2ccc3c(c2)OCO3)CC2(CCCC(COC(=O)NCc3ccccc3)O2)O1 (some centres undefined) : composite z-score value = -0.101
